Origin of values: PubChem BioAssay (NCI)

- Tested on: RXF 393 renal
- PROTOCOL SUMMARY: NCI tumour cell line growth inhibition, 48 h
Below is a list of entries, each paired with its recorded TGI value.

COMPOUND	MEASUREMENT QUALIFIER	TGI, µM
CCSC1=N/C(=C\c2ccccc2O)C(Nc2ccc(C)cc2)=N1	>	100
Nc1ccc(Nc2nc(F)nc(-c3c4ccccc4c4n3CCS4)n2)cc1	=	43.3
COc1ccc(O)c(C(=O)c2ccc(C(=O)O[C@@H]3CCCNC[C@H]3NC(=O)c3ccncc3)cc2)c1F	=	0.839
CCc1n[nH]c(=O)n1N1C(=O)C2CC=CCC2C1=O (stereo unspecified)	>	100
Cc1cc(N(CCC#N)CCC#N)ccc1/C(N=Nc1cccc([N+](=O)[O-])c1)=N/NC(=O)c1cc(Cl)ccc1O	=	72.2
CS(=O)(=O)CCNCc1ccc(-c2ccc3ncnc(Nc4ccc(OCc5cccc(C(F)(F)F)c5)cc4)c3c2)o1	=	13.6

* * *

Below is a list of entries, each paired with its recorded log10(TGI) value.
- Tested on: NCI-H226 lung
- PROTOCOL SUMMARY: NCI tumour cell line growth inhibition, 48 h
ENDPOINT NAME: log10(TGI) (log10 of the value in µM)

MOLECULE	ENDPOINT NAME	RECORDED RESULT
O=C1OCC(C#Cc2ccccc2)=C1Cl	log10(TGI)	0.85
CC(C)(C)c1ccc([I+]c2ccc(C(C)(C)C)cc2)cc1	log10(TGI)	0.73
Nc1nc(Cl)cc(NCC2(CO)CCC(Cc3ccccc3)C2)n1 (stereo unspecified)	log10(TGI)	1.99
Brc1ccc([I+]c2ccc(Br)cc2)cc1	log10(TGI)	1.18
O=C(CN1CCN(C(=O)OCc2ccccc2)CCN(CC(=O)N2CCCCC2)CCN(C(=O)OCc2ccccc2)CC1)N1CCCCC1	log10(TGI)	1.56
CC(=O)OC1COC(S[As](C)C)C(OC(C)=O)C1OC(C)=O (stereo unspecified)	log10(TGI)	0.90
CN1CCN(c2ccc3nc(-c4cc(C(C)(C)C)c(O)c(C(C)(C)C)c4)[nH]c3c2)CC1	log10(TGI)	1.51
COc1ccc2c(c1)CC[C@@H]1[C@@H]2CC[C@@]2(C)[C@H]1CC1(CCCCC1)[C@@H]2O	log10(TGI)	1.65
C#C[C@]1(O)CC[C@H]2[C@@H]3CC=C4c5sc(N=C(N)N)nc5CC[C@]4(C)[C@H]3CC[C@@]21C	log10(TGI)	0.60
CO[C@@H]1[C@@H](OC2OC(C)C(OC3CC(C)(O)C(OC(=O)CC(C)C)C(C)O3)C(N(C)C)C2O)[C@@H](CC=O)C[C@@H](C)C(=O)/C=C/C2O[C@H]2C[C@@H](C)OC(=O)C[C@H]1OC(C)=O (stereo partly specified)	log10(TGI)	1.53

* * *

- System: OVCAR-5 ovarian
- PROTOCOL SUMMARY: NCI tumour cell line growth inhibition, 48 h

COMPOUND	SYSTEM TESTED	TGI
CCOP(=O)(Nc1ccc(-c2ccccc2)cc1)OCC	OVCAR-5 ovarian	> 100 µM
N#Cc1c(-c2ccccc2)/c(=C\O)c(=O)n2c1nc1ccccc12	OVCAR-5 ovarian	> 100 µM
O=C1c2ccccc2-c2nc(-c3cccnc3)cc3c2c1nc1ccccc13	OVCAR-5 ovarian	> 100 µM
O=Cc1ccc(-c2ccc(-c3ccc(C=O)s3)o2)s1	OVCAR-5 ovarian	11 µM
O=C(O)C1C2CC3C(OC(=O)C31)C2Br (stereo unspecified)	OVCAR-5 ovarian	> 100 µM
O=C(Nc1cc(C(F)(F)F)ccc1F)Nc1n[nH]c2ccccc12	OVCAR-5 ovarian	> 100 µM
